Here, each record is paired with measured pKi data.
Method Description: Inhibition of 1 nM [3H]2-BFI binding to rat whole brain membrane imidazoline receptor I-2
# pKi = -log10(concentration in molar units)

c1ccc2oc(C3=NCCN3)cc2c1 ... 8.77

Shifting focus to the molecule that follows.
query: Provide measured pKi value, entry: N#CSc1ccc2oc(C3=NCCN3)cc2c1
result: 8.64
